- test target: human Gal-1 (hGal-1) (Homo sapiens, UniProt P09382)
- Sequence (P09382 2-135 limits assumed): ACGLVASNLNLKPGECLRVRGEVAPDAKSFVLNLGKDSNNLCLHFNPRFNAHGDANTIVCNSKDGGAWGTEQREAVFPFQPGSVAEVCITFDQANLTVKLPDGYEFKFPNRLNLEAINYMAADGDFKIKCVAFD
- method description: Competitive binding assay: biotinylated hGal-1 to microplate-adsorbed asialofetuin (ASF)
- condition label: Activities on hGal-1; binding to ASF-coated plates, 3 hours at 4° C.; mean values; read-out: Gal-1 IC50
pIC50: −log10 of the molar value.
Each entry below carries its reported pIC50.

# compound, pIC50
measured = [
    ("CO[C@@H]1[C@@H](n2cc(-c3cc(F)c(F)c(F)c3)nn2)[C@@H](O)[C@@H](CO)O[C@@H]1CC1=NO[C@]2(CC[C@@H](C(C)C)CC2)C1 [Example 1.28]", 5.16),
    ("CO[C@@H]1[C@@H](n2cc(-c3cc(F)c(F)c(F)c3)nn2)[C@@H](O)[C@@H](CO)O[C@@H]1CC1=NO[C@]2(CC[C@@H](NC(C)C)CC2)C1 [Example 2.13]", 5.15),
    ("CO[C@@H]1[C@@H](n2cc(-c3cc(F)c(F)c(F)c3)nn2)[C@@H](O)[C@@H](CO)O[C@@H]1CC1=NOC2(CCN(C)CC2)C1 [Example 2.29]", 5.32),
    ("CO[C@@H]1[C@@H](n2cc(-c3ccc(C)c(F)c3F)nn2)[C@@H](O)[C@@H](CO)O[C@@H]1CC1=NOC2(CCNC(=O)CC2)C1 (mixture of isomers) [Example 1.76]", 5.57),
    ("CO[C@@H]1[C@@H](n2cc(-c3ccc(C)c(F)c3F)nn2)[C@@H](O)[C@@H](CO)O[C@@H]1CN1C=NC2(CCCCC2)C1 [Example 4.04]", 5.89),
    ("CO[C@@H]1[C@@H](n2cc(-c3ccc(F)c(F)c3F)nn2)[C@@H](O)[C@@H](CO)O[C@@H]1CC1=NO[C@]2(CC[C@H](NC(C)=O)CC2)C1 [Example 2.08]", 6.51),
    ("CO[C@@H]1[C@@H](n2cc(-c3ccc(Cl)c(F)c3F)nn2)[C@@H](O)[C@@H](CO)O[C@@H]1CC1=NO[C@]2(CC[C@@H](C(C)(C)O)CC2)C1 [Example 1.65]", 5.57),
    ("CO[C@@H]1[C@@H](n2cc(-c3ccc(F)c(F)c3F)nn2)[C@@H](O)[C@@H](CO)O[C@@H]1CC1=NOC2(CCC(C#N)CC2)C1 (stereo partly shown) [Example 1.50]", 6.24),
    ("Cc1ccc(-c2cn([C@H]3[C@@H](O)[C@@H](CO)O[C@H](CC4=NOC5(CCOCC5)C4)[C@@H]3O)nn2)c(F)c1F [Example 1.02]", 5.28),
    ("CO[C@@H]1[C@@H](n2cc(-c3ccc(Cl)c(F)c3)nn2)[C@@H](O)[C@@H](CO)O[C@@H]1CC1=NOC2(CCCCC2)C1 [Example 1.12]", 5.96),
    ("CO[C@@H]1[C@@H](n2cc(-c3cc(F)c(F)c(F)c3)nn2)[C@@H](O)[C@@H](CO)O[C@@H]1CC1=NO[C@]2(CC[C@@H](NC(=O)OC(C)(C)C)CC2)C1 [Example 1.16]", 5.64),
    ("CO[C@@H]1[C@@H](n2cc(-c3ccc(Cl)c(F)c3F)nn2)[C@@H](O)[C@@H](CO)O[C@@H]1CC1=NO[C@]2(CC[C@H](C#N)CC2)C1 [Example 1.61]", 6.34),
    ("CO[C@@H]1[C@@H](n2cc(-c3ccc(Cl)c(F)c3F)nn2)[C@@H](O)[C@@H](CO)O[C@@H]1CC1=NOC2(CCCCC2)C1 [Example 1.22]", 5.43),
    ("OC[C@H]1O[C@H](CC2=NOC3(CCCCC3)C2)[C@H](OCC(F)F)[C@@H](n2cc(-c3cc(F)c(F)c(F)c3)nn2)[C@H]1O [Example 1.67]", 5.54),
    ("CO[C@@H]1[C@@H](n2cc(-c3cc(F)c(F)c(F)c3)nn2)[C@@H](O)[C@@H](CO)O[C@@H]1CC1=NO[C@]2(CC[C@H](C#N)CC2)C1 [Example 1.40]", 5.70),
    ("CO[C@@H]1[C@@H](n2cc(-c3ccc(Cl)c(F)c3F)nn2)[C@@H](O)[C@@H](CO)O[C@@H]1CN1CC2(CCCCC2)CNC1=O [Example 4.02]", 6.40),
    ("CO[C@@H]1[C@@H](n2cc(-c3cc(F)c(F)c(F)c3)nn2)[C@@H](O)[C@@H](CO)O[C@@H]1CC1=NO[C@]2(CC[C@@H](O)CC2)C1 [Example 2.02]", 5.29),
    ("CO[C@@H]1[C@@H](n2cc(-c3cc(F)c(F)c(F)c3)nn2)[C@@H](O)[C@@H](CO)O[C@@H]1CC1=NOC2(CCC(C)(C)C2)C1 (stereo partly shown) [Example 1.32]", 5.47),
    ("CO[C@@H]1[C@@H](n2cc(-c3cc(F)c(F)c(F)c3)nn2)[C@@H](O)[C@@H](CO)O[C@@H]1CC1=NOC2(CCOCC2)C1 [Example 1.23]", 5.46),
    ("CO[C@@H]1[C@@H](n2cc(-c3cc(F)c(F)c(F)c3)nn2)[C@@H](O)[C@@H](CO)O[C@@H]1CC1=NO[C@]2(CC[C@H](C(C)C)CC2)C1 [Example 1.27]", 4.73),
    ("CO[C@@H]1[C@@H](n2cc(-c3cc(F)c(F)c(Cl)c3)nn2)[C@@H](O)[C@@H](CO)O[C@@H]1CC1=NOC2(CCCCC2)C1 [Example 1.31]", 6.01),
    ("CO[C@@H]1[C@@H](n2cc(-c3cc(F)c(F)c(F)c3)nn2)[C@@H](O)[C@@H](CO)O[C@@H]1CC1=NO[C@]2(CC[C@H](C)CC2)C1 [Example 1.33]", 5.43),
]
